system: PXR:RXRa (NR concentration 270 nM, RXRa partner concentration 90 nM); test: PBM binding z-score (relative to random genomic background probes); higher = stronger binding; sequences stand for … in GC…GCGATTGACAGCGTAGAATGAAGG
recorded metric: PBM binding z-score
Would you mind answering with just the numeric figure?

The following sequences have reported results that may help.
chain: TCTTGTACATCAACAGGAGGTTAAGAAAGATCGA
recorded metric: PBM binding z-score
result number: 0.873
--
chain: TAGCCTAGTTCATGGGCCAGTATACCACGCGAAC
recorded metric: PBM binding z-score
result number: 0.408
--
chain: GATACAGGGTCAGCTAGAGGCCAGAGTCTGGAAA
recorded metric: PBM binding z-score
result number: 3.16
--
chain: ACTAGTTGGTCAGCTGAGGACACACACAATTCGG
recorded metric: PBM binding z-score
result number: 1.38

Ask | Returns the measured PBM binding z-score for the input sequence. Input: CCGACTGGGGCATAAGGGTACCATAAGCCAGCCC
Reply | -0.472

Ask | And for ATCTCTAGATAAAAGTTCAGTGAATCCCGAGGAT ?
Reply | 1.57

Ask | And for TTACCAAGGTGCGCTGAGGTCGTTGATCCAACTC ?
Reply | 2.58

Ask | And for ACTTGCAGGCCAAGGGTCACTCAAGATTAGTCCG ?
Reply | 3.22

Ask | And for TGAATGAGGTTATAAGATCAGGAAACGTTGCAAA ?
Reply | 0.789

Ask | And for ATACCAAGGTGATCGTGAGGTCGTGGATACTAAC ?
Reply | 2.53

Ask | And for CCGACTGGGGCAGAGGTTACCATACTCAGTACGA ?
Reply | 0.917

Ask | And for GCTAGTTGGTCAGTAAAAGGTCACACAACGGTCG ?
Reply | 5.2

Ask | And for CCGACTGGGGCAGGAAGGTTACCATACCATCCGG ?
Reply | -0.00877
